Cited source: patent US20240044920A1

A450 values, listed per item
Biological target: T1, human ceruloplasmin (human, UniProt P00450 20-1065)
T1 construct: also called CP; purified CP
T1 sequence: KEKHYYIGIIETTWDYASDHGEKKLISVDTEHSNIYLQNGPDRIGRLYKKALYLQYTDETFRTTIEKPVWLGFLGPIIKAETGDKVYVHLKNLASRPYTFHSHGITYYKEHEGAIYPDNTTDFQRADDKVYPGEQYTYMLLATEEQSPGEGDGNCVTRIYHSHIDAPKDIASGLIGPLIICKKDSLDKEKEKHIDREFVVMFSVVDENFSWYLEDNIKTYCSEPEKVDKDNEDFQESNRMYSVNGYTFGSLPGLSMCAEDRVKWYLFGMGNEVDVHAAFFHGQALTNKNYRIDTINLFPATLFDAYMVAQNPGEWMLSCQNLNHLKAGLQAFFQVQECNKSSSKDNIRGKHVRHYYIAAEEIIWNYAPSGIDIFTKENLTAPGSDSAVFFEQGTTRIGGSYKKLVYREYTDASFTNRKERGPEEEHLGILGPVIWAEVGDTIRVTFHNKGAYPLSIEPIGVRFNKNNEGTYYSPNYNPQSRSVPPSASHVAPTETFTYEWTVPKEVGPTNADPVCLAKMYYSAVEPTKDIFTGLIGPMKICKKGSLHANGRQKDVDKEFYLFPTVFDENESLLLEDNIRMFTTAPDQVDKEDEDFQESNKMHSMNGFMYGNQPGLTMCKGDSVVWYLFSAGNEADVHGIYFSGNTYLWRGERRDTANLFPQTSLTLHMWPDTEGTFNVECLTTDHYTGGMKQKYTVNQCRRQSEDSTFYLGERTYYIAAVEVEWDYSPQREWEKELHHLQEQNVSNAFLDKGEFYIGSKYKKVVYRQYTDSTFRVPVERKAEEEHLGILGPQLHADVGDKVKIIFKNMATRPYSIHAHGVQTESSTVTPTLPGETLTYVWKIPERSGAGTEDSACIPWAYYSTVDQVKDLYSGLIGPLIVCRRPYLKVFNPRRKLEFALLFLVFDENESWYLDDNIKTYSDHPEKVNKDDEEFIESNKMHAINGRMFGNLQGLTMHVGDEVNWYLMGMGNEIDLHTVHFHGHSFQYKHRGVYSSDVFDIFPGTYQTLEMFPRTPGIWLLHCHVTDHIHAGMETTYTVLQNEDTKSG
Assay: capture ELISA: mAb (CM, 50 ng/mL) on anti-rabbit IgG-Fc; 20 ng/mL purified human CP
Assay endpoint: A450 (A450)

{"Binder": "anti-CP mAb C (antibody, V domains shown, Recombinant full-length rabbit IgG from HEK-293; also called mAb2) VH: QSVEESGGRLVTPGTPLTLTCTASGFSLSRYYMSWVRQAPGKGLEWIGMIYPSSGSTWYASWVKGRFTISATATSVDLKITSPTTEDTATYFCVRDRYPGYNGDSFNLWGQGTLVTVSS VL: AQVLTQTASPVSAAVGSTVTINCQASQSVYNNNYLAWFQQKPGQPPKRLIYQASKLAIGVPSRFSGSGSGTQFTLTISDVQCDDAATYYCLGSYGCNSVDCNVFGGGTEVVVKG", "Unit text": "A450", "Test result": 1.09}
{"Binder": "anti-CP mAb G (antibody, V domains shown, Recombinant full-length rabbit IgG from HEK-293; also called mAb3) VH: QSLEESGGRLVTPGTLLTLTCTVSGFSLSSNAMSWVRQAPGEGLEWIGTISSRGSTYYANWAKGRFTISKTSTTVDLKITSPTTEDTATYFCARSSLAGYEPYYFKLWGQGTLVTVSS VL: DVVMTQTASPVSAAVGGTVTIKCQASESISSYLAWYQQKPGQPPKLLIYGASDLASGVPSRFKGSGSGTEFTLTISDLECADAATYYCQSYYGLSRNGYGNVFGGGTEVVVKG", "Unit text": "A450", "Test result": 0.987}
{"Binder": "anti-CP mAb H (antibody, V domains shown, Recombinant full-length rabbit IgG from HEK-293; tested as conditioned medium, Protein A-purified and biotinylated) VH: QSVEESGGRLVTPGTPLTLTCTVSGFSLSTYAMGWVRQAPGKGLEYIGIIYGGSGTFYASWAKGRFTISKTSTTVDLKITSPTTEDTATYFCARDGDDSYFDYFNLWGQGTLVTVSS VL: AAVLTQTPASVSAAVGGTVSISCQSNENIGSNLAWYQQKPGQPPKLLIYGASTLTSGVPSRFKGSGSGTAFTLTISGVQCDDAATYYCLGGYLSTSDTTFGGGTAVVVKG", "Unit text": "A450", "Test result": 0.924}
